target: T1, human ROR2 extracellular domain (ROR2 ECD recombinant protein) (human, UniProt Q01974 34-403); test: kinetic binding analysis, full length IgG1 on human ROR2-ECD
T1 construct: also called human ROR2-ECD; hROR2-ECD
T1 sequence (Q01974 34-403): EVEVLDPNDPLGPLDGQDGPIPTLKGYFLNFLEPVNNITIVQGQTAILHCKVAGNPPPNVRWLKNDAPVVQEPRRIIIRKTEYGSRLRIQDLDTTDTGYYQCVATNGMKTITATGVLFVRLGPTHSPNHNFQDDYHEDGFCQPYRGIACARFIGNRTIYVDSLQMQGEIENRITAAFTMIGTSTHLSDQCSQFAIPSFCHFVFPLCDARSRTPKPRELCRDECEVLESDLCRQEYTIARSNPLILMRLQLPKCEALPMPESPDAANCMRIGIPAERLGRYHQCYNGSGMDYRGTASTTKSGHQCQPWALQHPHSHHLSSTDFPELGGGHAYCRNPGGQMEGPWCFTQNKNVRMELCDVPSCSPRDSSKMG
Reported Endpoint: kon (M⁻¹ s⁻¹)
Write the number in M⁻¹ s⁻¹ without appending the unit.

Req: Complete the entry with kon for ROR2-23 full length human IgG1 antibody (antibody, V domains shown, The light chain of clone 023 is labelled kappa; also called clone #23; clone #023 IgG1) VH: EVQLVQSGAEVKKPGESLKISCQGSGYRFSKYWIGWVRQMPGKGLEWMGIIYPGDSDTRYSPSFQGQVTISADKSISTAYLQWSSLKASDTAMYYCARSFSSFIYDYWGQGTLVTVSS VL: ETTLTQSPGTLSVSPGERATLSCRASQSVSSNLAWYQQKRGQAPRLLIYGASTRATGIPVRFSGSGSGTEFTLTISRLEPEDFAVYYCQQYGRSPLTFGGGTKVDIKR
Resp: 2.63e+06

Req: Complete the entry with kon for ROR2-90 full length human IgG1 antibody (antibody, V domains shown, also called clone #90; antibody #90) VH: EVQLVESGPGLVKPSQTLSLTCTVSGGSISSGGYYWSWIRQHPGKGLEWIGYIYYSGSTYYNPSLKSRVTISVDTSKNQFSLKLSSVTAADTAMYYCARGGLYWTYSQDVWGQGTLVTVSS VL: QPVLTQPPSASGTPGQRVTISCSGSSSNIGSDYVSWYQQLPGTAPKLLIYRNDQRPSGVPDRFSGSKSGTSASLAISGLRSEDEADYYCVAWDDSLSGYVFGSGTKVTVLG
Resp: 1.02e+06

Req: Complete the entry with kon for ROR2-27 full length human IgG1 antibody (antibody, V domains shown, also called clone #27; clone #027 IgG1) VH: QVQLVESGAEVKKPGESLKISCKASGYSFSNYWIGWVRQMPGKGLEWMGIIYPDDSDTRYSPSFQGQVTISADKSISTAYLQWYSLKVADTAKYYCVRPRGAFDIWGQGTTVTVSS VL: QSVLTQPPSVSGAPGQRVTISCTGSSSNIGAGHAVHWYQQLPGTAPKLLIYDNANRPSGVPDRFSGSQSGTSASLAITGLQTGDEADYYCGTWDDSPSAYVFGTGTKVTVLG
Resp: 851000

The reported measurements were obtained from patent US20180127503A1.
